Property: TGI; scope: individual compounds
Tested on: U251 CNS
PROCEDURE_DETAILS: NCI tumour cell line growth inhibition, 48 h
EXPERIMENTAL_READOUT: TGI

[[record]]
compound = "Cc1[nH]n(-c2nc3c(c(=O)[nH]2)CCCC3)c(=O)c1CCO"
system_tested = "U251 CNS"
measurement = "> 100 µM"

[[record]]
compound = "C(=Nc1nc(SCc2ccccc2)nc2[nH]ncc12)c1cccs1"
system_tested = "U251 CNS"
measurement = "> 100 µM"

[[record]]
compound = "O=S(=O)(/N=C(\\NO)Nc1ccc(Cl)cc1)c1cc(C(F)(F)F)cc(C(F)(F)F)c1"
system_tested = "U251 CNS"
measurement = "31.4 µM"

[[record]]
compound = "O=C(c1ccccc1)[C@H]1Nc2ccc(Cl)cc2[C@H]2CCC[C@@H]12"
system_tested = "U251 CNS"
measurement = "> 100 µM"

[[record]]
compound = "CCN(/C=C1/C(=O)C(c2ccccc2)N(c2ccccc2)C1=O)CC (stereo unspecified)"
system_tested = "U251 CNS"
measurement = "> 10 µM"

[[record]]
compound = "CC(=O)c1ccc(N=NN2CCCC2)cc1"
system_tested = "U251 CNS"
measurement = "> 100 µM"


---

Tested on: LOX IMVI melanoma
PROCEDURE_DETAILS: NCI tumour cell line growth inhibition, 48 h; in the data active means GI50 below about 0.43 µM; inactive means the rest
Where a SMILES comes first, the peptide text is derived from it. Bridges are numbered along the chain shown (N, C = ends). [ ]: non-standard residue; d: D form. aThr = C[C@H](O)[C@H](N)C(=O)O
Outcome codes: YES for active, NO for inactive

[[record]]
molecule = "CC(C)C[C@@H]1NC(=O)[C@@H]2CCCN2C(=O)[C@@H]2CCCN2C(=O)[C@H](CC(C)C)NC(=O)[C@H](CO)NC(=O)[C@H](CCCCN)NC(=O)[C@H]([C@H](C)O)NC(=O)[C@@H]2CSSC[C@@H](NC1=O)C(=O)N[C@@H](Cc1ccccc1)C(=O)N1CCC[C@H]1C(=O)N[C@@H](CC(=O)O)C(=O)NCC(=O)N[C@@H](CCCN=C(N)N)C(=O)N2 (cyclo(C[aThr]KSLPPL[dC]FPDGR); disulfide 1-9)"
label_value = "NO"

[[record]]
molecule = "CC(=O)Oc1c(C(=O)[O-])cc(C(C)C)cc1C(C)C.CC(=O)Oc1c(C(=O)[O-])cc(C(C)C)cc1C(C)C.CC(=O)Oc1c(C(=O)[O-])cc(C(C)C)cc1C(C)C.CC(=O)Oc1c(C(=O)[O-])cc(C(C)C)cc1C(C)C.[Cu+2].[Cu+2]"
label_value = "NO"

[[record]]
molecule = "CCN(CC)c1ccc2nc3ccc(=[N+](CC)CC)cc-3oc2c1"
label_value = "YES"

[[record]]
molecule = "CCCCCCCCCCCCCCNC(=O)Nc1ccc(Cl)c(Cl)c1"
label_value = "NO"

[[record]]
molecule = "COc1ccc(Nc2cnc3cc(N)cc(N)c3n2)cc1"
label_value = "NO"

[[record]]
molecule = "C#Cc1ccc(-n2c(/C=C/c3ccc(O)cc3)nc3ncccc3c2=O)cc1"
label_value = "NO"

[[record]]
molecule = "COc1ccc(-c2[nH]c3ccc(OC)cc3c2C=C(C#N)C#N)cc1"
label_value = "NO"

[[record]]
molecule = "CCCCCC(=O)O[C@]1(C(C)=O)CCC2C3CCC4=CC(=O)CC[C@]4(C)C3CC[C@@]21C (some centres undefined)"
label_value = "NO"

[[record]]
molecule = "COC12C(COC(=O)NCCO)C3=C(C(=O)C(C)=C(N)C3=O)N1CC1NC12 (centres undefined)"
label_value = "NO"

